# Test Target: bovine testes calmodulin (bovine, UniProt P62157 1-149)
# Assay Notes: SPR
Endpoint Name: kon (M⁻¹ s⁻¹)

(I) His-tagged ACA8 N-terminus, wild type (6His-1M-I116) (domain or fragment) MTSLLKSSPGRRRGGDVESGKSEHADSDSDTFYIPSKNASIERLQQWRKAALVLNASRRFRYTLDLKKEQETREMRQKIRSHAHALLAANRFMDMGRESGVEKTTGPATPAGDFGI
(II) His-tagged ACA8 N-terminus S27D (6His-1M-I116) (domain or fragment) MTSLLKSSPGRRRGGDVESGKSEHADDDSDTFYIPSKNASIERLQQWRKAALVLNASRRFRYTLDLKKEQETREMRQKIRSHAHALLAANRFMDMGRESGVEKTTGPATPAGDFGI
Param metric = kon; output whichever of I , II has the minimum value. Your choice should be expressed through its label.
I
(I: 127000 M⁻¹ s⁻¹, II: 196000 M⁻¹ s⁻¹)

The reported numbers originate from paper PMC3276087.
